B1: mRNA-splicing (parent)
chain: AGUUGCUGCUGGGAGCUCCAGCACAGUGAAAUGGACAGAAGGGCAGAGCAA

Variants of: B1
test: exon inclusion enrichment index; higher = more inclusion; WT1 exon 5 minigene, HEK293
value-type: exon inclusion enrichment index

mutation-notation: G5A C6U U7A G8U C9A G13A A14C
value-type: exon inclusion enrichment index
test-result: 0.394
--
mutation-notation: G5A C6A
value-type: exon inclusion enrichment index
test-result: 0.0111
--
mutation-notation: G5U G8A C9U
value-type: exon inclusion enrichment index
test-result: 0.205
--
mutation-notation: C6A U7A C9A U10A A30C
value-type: exon inclusion enrichment index
test-result: 0.809
--
mutation-notation: G2C U3C
value-type: exon inclusion enrichment index
test-result: 0.044
--
mutation-notation: G5A C6G U7G C9A G28A A29C
value-type: exon inclusion enrichment index
test-result: 0.00171
--
mutation-notation: G5A U7C G8A U10C A29C
value-type: exon inclusion enrichment index
test-result: 2.01
--
mutation-notation: G5A U7C G8A U10C G12A G13U
value-type: exon inclusion enrichment index
test-result: 0.132
--
mutation-notation: G5C C6U G8C C9U U10C A20U G21A
value-type: exon inclusion enrichment index
test-result: 0.91
--
mutation-notation: G5A C6U U7A G8U C9A G15U C16G
value-type: exon inclusion enrichment index
test-result: 0.0108
--
mutation-notation: G5C C6G U7C U10C G15A C16G
value-type: exon inclusion enrichment index
test-result: 3.04
--
mutation-notation: G5C C6G U7C U10C G43U C44G
value-type: exon inclusion enrichment index
test-result: 0.713
--
mutation-notation: G2U U3A G5C C6G U7C U10C
value-type: exon inclusion enrichment index
test-result: 5.21
--
mutation-notation: G5U C6G U7C U10C
value-type: exon inclusion enrichment index
test-result: 2.34
--
mutation-notation: G5A U7C G8A U10C G42U
value-type: exon inclusion enrichment index
test-result: 2.55
--
mutation-notation: A23U C24A
value-type: exon inclusion enrichment index
test-result: 0.217
--
mutation-notation: G5U G8A C9G
value-type: exon inclusion enrichment index
test-result: 0.061
--
mutation-notation: G5C C6G U7C U10C A14U
value-type: exon inclusion enrichment index
test-result: 1.05
